Below are IC50 values recorded for EGFR (human).
RESULT TYPE: IC50 (nM)

Below, 3 compounds whose answers are already recorded.
{"COMPOUND": "COCCOc1cc2ncnc(Nc3ccc(F)c(Cl)c3)c2cc1NC(=O)/C=C/CN1CC[C@@H]1COC", "UNIT STRING": "nM", "IC50": 1.4}
{"COMPOUND": "O=C(/C=C/CN1CCC1CO)Nc1cc2c(Nc3ccc(F)c(Cl)c3)ncnc2cc1OCC1CC1 (stereo not given)", "UNIT STRING": "nM", "IC50": 9.5}
{"COMPOUND": "CCOc1cc2ncnc(Nc3ccc(F)c(Cl)c3)c2cc1NC(=O)/C=C/CN1CC[C@@H]1COC", "UNIT STRING": "nM", "IC50": 2}

I = O=C(/C=C/CN1CCC1CO)Nc1cc2c(Nc3ccc(F)c(Cl)c3)ncnc2cc1OC[C@H]1[C@@H]2COC[C@@H]21 (stereo not given in full)
II = O=C(/C=C/CN1CCC1CO)Nc1cc2c(Nc3ccc(F)c(Cl)c3)ncnc2cc1O[C@H]1CCOC1 (stereo not given in full)
// compare measured IC50 between I and II ; output the lower one Provide the label of your selected option as the answer.
II

From: the Kinase Knowledgebase extract (Sharma et al. 2016)
